test system: MDA-MB-435; assay: NCI tumour cell line growth inhibition, 48 h
The source made the active and inactive calls. Rule as the data show it: active = GI50 up to about 1.1 µM and inactive = higher.
measured_endpoint: GI50

CN1C(=O)N(c2ccccc2)C2(CCN(CC3COc4ccccc4O3)CC2)C1=O (stereo not given): > 100 µM (inactive)

In: GET /values?readout=GI50&item= `COC(=O)[C@]12CSC[C@H]1C[C@H](c1cccc3ccccc13)N2`
Out: > 100 µM (inactive)

In: # iterate: `CCCCc1ccc(N2C(=O)c3cc([N+](=O)[O-])cnc3S2(=O)=O)cc1`
Out: > 100 µM (inactive)

In: # iterate: `COc1cc(C=C2C(=O)NC(=S)NC2=O)cc(OC)c1OC`
Out: > 100 µM (inactive)

In: # iterate: OC(c1ccc(Br)cc1)(c1cccs1)C1CC1 (stereo not given)
Out: 18.1 µM (inactive)

In: # iterate: NC(=O)C(N)CC12CC3CC(CC(C3)C1)C2 (stereo not given)
Out: 16 µM (inactive)

In: # iterate: CCOC(=O)C1(Cc2ccc3c(c2)CCC3)Cc2cc3c(cc2C1=O)CCC3 (stereo not given)
Out: 36.3 µM (inactive)

In: # iterate: COc1ccc(C2Oc3c(cccc3OC)C=C2[N+](=O)[O-])cc1 (stereo not given)
Out: 2.12 µM (inactive)

In: # iterate: CCOP(=O)(OCC)C(Cc1ccccc1)N=C(c1ccccc1)c1ccccc1 (stereo not given)
Out: 13.2 µM (inactive)

In: # iterate: COc1ncnc2c(Cl)c(C(O)c3ccccc3)c(Cl)cc12 (stereo not given)
Out: 5.57 µM (inactive)

In: # iterate: `O=c1ccn([C@@H]2C[C@H]2CO)c(=O)[nH]1`
Out: > 100 µM (inactive)

In: # iterate: COC(=O)C1Cc2c([nH]c3ccccc23)-c2[nH]c3ccccc3c2CC(NC(C)=O)C(=O)NCC(=O)N1 (stereo not given)
Out: > 100 µM (inactive)

In: # iterate: `Cc1ccc(/N=C2/C(c3ccccc3)=C(SC3=C(c4ccccc4)/C(=N/c4ccc(C)cc4)c4ccccc43)c3ccccc32)cc1`
Out: > 100 µM (inactive)

In: # iterate: `COC(=O)[C@](C)(Cc1ccccc1)NC(=O)[C@@H](C)N1[C@@H](c2ccccc2)COC1(C)C`
Out: 48.8 µM (inactive)

In: # iterate: `c1ccc([B-]2(c3ccccc3)NCCCO2)cc1`
Out: 46.3 µM (inactive)

In: # iterate: `O=C(c1cccs1)N(C(=S)OCc1ccccn1)c1ccccc1`
Out: > 100 µM (inactive)

----------
Below is a list of entries, each paired with its recorded GI50 value.
system: SK-MEL-28; assay: NCI tumour cell line growth inhibition, 48 h
The source made the active and inactive calls. Cut-off read from the data, not from the text of the source: active = GI50 up to about 1.1 µM and inactive = higher.

Below are worked cases with known answers.
CC1=CC(C)C/C=C/C2C3OC3(C)C(C)C3C(Cc4c[nH]c5ccccc45)NC(=O)C23C(=O)C=CC(=O)C1O (stereo not drawn): 14.7 µM (inactive)
COc1ncnc2c(Cl)c(C(O)c3ccccc3)c(Cl)cc12 (stereo not drawn): 34.6 µM (inactive)
COC(OC)C(O)C1OC=CC1n1cnc2c(N)ncnc21 (stereo not drawn): > 100 µM (inactive)
O=C(Nc1cccc(-c2cn3ccccc3n2)c1)c1ccncc1: 48.5 µM (inactive)
CC(=O)NC(CCCNC(=O)N(CCCl)N=O)C(=O)NCc1ccccc1 (stereo not drawn): > 100 µM (inactive)
COc1ccc(/C=C/C(=O)N[C@@H]2C(=O)N3[C@@H]2SC(C)(C)[C@@H]3C(=O)O)cc1OC: > 100 µM (inactive)

In: What GI50 appears in the records for this compound with SK-MEL-28? Clc1ccc2c(c1)C1C(CO2)C(c2ccccc2)=NN1c1ccccc1 (stereo not drawn)
Out: 54.1 µM (inactive)

In: # iterate: `O=C1CCC(O)=C1O`
Out: > 100 µM (inactive)

In: # iterate: `C[C@]12CCC(=O)C=C1CC[C@@H]1[C@@H]2CC[C@]2(C)C(=O)/C(=C/c3ccncc3)C[C@@H]12`
Out: 20 µM (inactive)

In: # iterate: COC(=O)C1CCC(C)CC1=O (stereo not drawn)
Out: > 100 µM (inactive)

In: # iterate: c1ccc2[nH]c(C3CCCCO3)nc2c1 (stereo not drawn)
Out: > 100 µM (inactive)

----------
system: SK-OV-3; experiment: NCI tumour cell line growth inhibition, 48 h
Calls of active or inactive are those of the source. Rule as the data show it: active = GI50 up to about 1.1 µM and inactive = higher.
Below is a list of entries, each paired with its recorded GI50 value.

Below are worked cases with known answers.
CC1(C)CC2(C)ON=C(c3ccccc3)N2c2ccccc2N1 (stereo unspecified): 21.7 µM (inactive)
CN1C(=O)C(O)C[C@@H]1c1ccccc1 (stereo partly specified): > 100 µM (inactive)
O=C(/C=N/O)Nc1cc(Cl)c(Cl)cc1Cl: 27.8 µM (inactive)
Cc1ccc(/N=C2/C(c3ccccc3)=C(SC3=C(c4ccccc4)/C(=N/c4ccc(C)cc4)c4ccccc43)c3ccccc32)cc1: 15 µM (inactive)
CCOC(=O)C1=C(C)N(C2OC(COC(C)=O)C(OC(C)=O)C(OC(C)=O)C2OC(C)=O)C(=O)NC1c1ccccc1 (stereo unspecified): > 100 µM (inactive)

In: GET /values?readout=GI50&item= Cc1cccc(N2C(=O)C3c4[nH]c5ccccc5c4C4CCC(C(C)(C)C)CC4C3C2=O)c1C (stereo unspecified)
Out: > 100 µM (inactive)

In: # iterate: `COc1cc(-c2ccccc2N)c2cccnc2c1OC`
Out: 9.57 µM (inactive)

In: # iterate: Cc1ccc2c(c1C)C(=O)C1(C2)Cc2ccc3c(c2C1=O)CCC3 (stereo unspecified)
Out: > 100 µM (inactive)

In: # iterate: `CN(C)CCSS(=O)(=O)O`
Out: 29.4 µM (inactive)

In: # iterate: `CC(=O)c1ccc(Oc2ccc(/C(C)=N\N=C(N)N)cc2)cc1`
Out: 2.83 µM (inactive)

In: # iterate: `Cc1cc(=O)oc2cc3c(cc12)Oc1ccccc1O3`
Out: 99.8 µM (inactive)

In: # iterate: `O=C1OC(=O)c2cc(S(=O)(=O)c3ccc4c(c3)C(=O)OC4=O)ccc21`
Out: > 100 µM (inactive)

In: # iterate: `[N-]=[N+]=Nc1cccc(-c2nnc(Cl)cc2O)c1`
Out: > 100 µM (inactive)

In: # iterate: O=C1NC(=S)NC1C(Cc1ccccc1)c1ccco1 (stereo unspecified)
Out: > 100 µM (inactive)

In: # iterate: `N#C/C(=C\c1ccc[nH]1)C(=O)c1ccccc1`
Out: > 100 µM (inactive)

----------
tested on: ACHN; assay: NCI tumour cell line growth inhibition, 48 h
Activity calls are given as the source filed them. Rule as the data show it: active = GI50 up to about 1.1 µM and inactive = higher.
The categories you may choose from are active, inactive

Example entries and their recorded answers appear below.
NCCOCCOCC(=O)O: inactive
O=C1O[C@H]2[C@H](OC(=O)c3cc(O)c(O)c(O)c3)[C@@H](OC(=O)c3cc(O)c(O)c4c3[C@@H]3C1=CC(=O)C(O)(O)C3(O)O4)[C@H](OC(=O)c1cc(O)c(O)c(O)c1)O[C@@H]2COC(=O)c1cc(O)c(O)c(O)c1 (stereo partly specified): inactive

In: Entry `O=C(NC12CC3CC(CC(C3)C1)C2)C(=O)c1c[nH]c2ccccc12` : call = ?
Out: inactive

In: # iterate: `O=S(=O)(c1cc(Cl)ccc1Cl)N1CCN(c2cccc(Cl)c2)CC1`
Out: inactive

In: # iterate: `COC(=O)[C@]12CSC[C@H]1C[C@H](c1cccc3ccccc13)N2`
Out: inactive

In: # iterate: `CN(C)CCNC(=O)c1ccc(Cl)c2cc3ccccc3nc12`
Out: active

In: # iterate: `COc1cc(NCc2ccc3nc(N)nc(N)c3c2C)cc(OC)c1OC`
Out: active

----------
test system: LOX IMVI; assay: NCI tumour cell line growth inhibition, 48 h
Active and inactive are the calls of the source. Cut-off read from the data, not from the text of the source: active = GI50 up to about 1.1 µM and inactive = higher.
measured_endpoint: GI50

Below are worked cases with known answers.
CCOC(=O)N1N(c2ccccc2)C(=O)C1(c1ccccc1)c1ccccc1: 70.6 µM (inactive)
O=C1CS(=O)(=O)C(c2cccc(Oc3ccccc3)c2)N1c1cccc(Cl)c1 (configuration not stated): 15.7 µM (inactive)
Cc1cc2occ(C)c(=O)c2c2c1OC(C)(C)S2: > 100 µM (inactive)
CCOC(=O)C1(C)CCC(C(=O)OC)C1=O (configuration not stated): 18.1 µM (inactive)
COC(=O)CCCCCOS(=O)(=O)c1ccc(C)cc1: > 100 µM (inactive)
CC1(C)NC(=O)N(CCCCCCN2C(=O)NC(C)(C)C2=O)C1=O: > 100 µM (inactive)

Now look at this entry.
In: GET /values?readout=GI50&item= CSc1nc2c(c(O)c(C)c(=O)n2C2OCC(OC(C)=O)C(OC(C)=O)C2OC(C)=O)c(=O)n1C (configuration not stated)
Out: > 100 µM (inactive)
